Test system: OVCAR-4 ovarian
ASSAY_OVERVIEW: NCI-60 one-dose screen, 48 h (100 = growth as untreated, 0 = no growth, -100 = all killed)
EXPERIMENTAL_CONDITIONS: 10 µM
This is part of a sample that, as a whole, favours compounds with a hit. Of some 83,000 tested, about 20% had one in any assay.
In this section, each of the compounds is paired with its reported growth.
Provide only the numeric value, understood in %.

{"columns": ["COMPOUND", "growth [%]"],
 "data": [
  ["Cn1c(N)c(N=Cc2ccccc2)c(=O)n(C)c1=O", 111],
  ["COc1ccc(-c2nsc3c2NC(=O)CC3c2ccc(Cl)cc2)cc1 (configuration not stated)", 99.8],
  ["Nc1cc(O)cc(O)c1", 94.1],
  ["CCOC(=O)c1c(C)n(-c2ccc(Cl)cc2)c2ccc(OC(=O)/C=C/c3ccccc3)cc12", 81.6],
  ["COc1ccc2oc(=O)cc(C3c4ccc([nH]4)C(c4cc(=O)oc5ccc(OC)cc45)c4ccc([nH]4)C(c4cc(=O)oc5ccc(OC)cc45)c4ccc([nH]4)C(c4cc(=O)oc5ccc(OC)cc45)c4ccc3[nH]4)c2c1 (configuration not stated)", 0.347]
]}

Specify reported growth for the compound shown: Cn1cnc([N+](=O)[O-])c1Sc1nnc(-c2ccccc2)c(-c2ccccc2)n1
73.9

Item CCCCCCCCCCN=C(c1ccc(N(C)C)cc1)c1ccc(N(C)C)cc1 : provide growth
59.8

Supply growth value. Item: COc1ccc(C(=O)c2sc3nc(-c4cccs4)ccc3c2N)cc1OC
61.2

###

System: K-562 leukemia
ASSAY_OVERVIEW: NCI-60 one-dose screen, 48 h (100 = growth as untreated, 0 = no growth, -100 = all killed)
EXPERIMENTAL_CONDITIONS: 10 µM
About 83,000 compounds went through this panel and 20% of them were active in at least one assay; those are over-represented in the sample as a whole.
PARAMETER: growth (%)
// return numeric value only (unit: %, not printed)

{"columns": ["MOLECULE", "growth (%)"],
 "data": [
  ["c1ccc(C2CCCCC2)c(OCCCCCN2CCNCC2)c1", -13.1],
  ["Cc1ccc2nc3[nH]c(=O)[nH]c(=O)c3c(N)c2c1", 96.2],
  ["O=S(=O)(NCl)c1ccccc1", 97.3],
  ["Nc1cc2c(cc1Cl)-c1ccc(Cl)cc1C2=O", 89.9]
]}

Using the record for COc1cc(C2C(C#N)=C(c3c[nH]c4ccccc34)Nc3nc(N)[nH]c(=O)c32)cc(OC)c1OC (centres undefined) , state its measured growth.
50.4

Given Nc1nc2c(nnn2C2CC(O)C(CO)O2)c(=O)[nH]1 (centres undefined) , respond with its growth.
40.5

Look up growth of CCOc1ccc(-n2cc(-c3ccc(N(C)C)cc3)[n+]3c2CCCCC3)cc1 and report it.
9.14

###

growth by entry:
System: DU-145 prostate
ASSAY_OVERVIEW: NCI-60 one-dose screen, 48 h (100 = growth as untreated, 0 = no growth, -100 = all killed)
EXPERIMENTAL_CONDITIONS: 10 µM
The panel holds about 83,000 compounds, 20% with a hit somewhere; the sample as a whole holds those more often.
Give the number; % is assumed, so skip it.

{"columns": ["COMPOUND", "UOM", "growth"],
 "data": [
  ["C/C(=N\\NC(=S)N1CCCC1)c1ccccn1", "%", 16.7]
]}

# ---- query compound ----
Kindly indicate its recorded growth. Item: CCCCNC(=O)Oc1ccc(/C(=C(\C)c2ccc(OC)cc2)c2ccc(OCCN3CCCCC3)cc2)cc1
72.9

###

Tested on: BT-549 breast
ASSAY_OVERVIEW: NCI-60 one-dose screen, 48 h
EXPERIMENTAL_CONDITIONS: 10 µM
This is part of a sample that, as a whole, favours compounds with a hit. Of some 83,000 tested, about 20% had one in any assay. Activity calls are given as the source filed them. Rule for the calls: active = growth percent below 10; inactive = the rest.
Give one outcome, nothing more. List: true (1) = active, false (0) = inactive

{"columns": ["COMPOUND", "CLASSIFICATION"],
 "data": [
  ["Cc1cn(C(=O)/C(Cl)=C(/Cl)C(=O)O)c2ccccc12", "false (0)"],
  ["COc1cccc2c1C(=O)c1c(O)c3c(c(O)c1C2=O)C[C@@](O)(C(=O)COC(=O)c1ccccc1)C[C@@H]3OC1CC(N)C(O)C(C)O1 (stereo not given in full)", "true (1)"],
  ["COc1cc(OC)cc(-c2ccc(-c3ccc(C(=N)N)cn3)o2)c1", "true (1)"],
  ["CCN(CC)CCn1c(=N)n(CC(O)c2ccc(Cl)c(Cl)c2)c2ccccc21 (stereo not given)", "false (0)"],
  ["O=C(/C=C/c1ccc(Cl)cc1)c1ccc(Br)cc1", "false (0)"],
  ["CCCCCCCCCCCCc1ccc(C(=O)/C=C/C(=O)O)cc1", "false (0)"],
  ["CCCc1c(C)nc2scc(-c3ccc(Cl)cc3)n2c1=O", "false (0)"],
  ["NS(=O)(=O)c1ccc(N2N=C(c3ccc(-c4ccccc4)cc3)CC2c2ccc(Cl)cc2)cc1 (stereo not given)", "false (0)"]
]}

Record lookup: outcome of this test for O=S(=O)(NCl)c1ccccc1 ?
false (0)

Which outcome was entered for the compound COc1cc(/C=C/C(=O)c2cc(-c3ccccc3)ccc2O)cc(OC)c1OC in this test?
false (0)

###

The entries below are paired with their reported growth.
Tested on: LOX IMVI melanoma
ASSAY_OVERVIEW: NCI-60 one-dose screen, 48 h (100 = growth as untreated, 0 = no growth, -100 = all killed)
EXPERIMENTAL_CONDITIONS: 10 µM
About 83,000 compounds went through this panel and 20% of them were active in at least one assay; those are over-represented in the sample as a whole. Active and inactive are the calls of the source. How the source made its calls: active means growth percent below 10; inactive means the rest.

Consider the following illustrative entries.
{"columns": ["MOLECULE", "growth"],
 "data": [
  ["NC(N)=NS(=O)(=O)c1ccc(Nc2ccc3nnc(-c4ccncc4)n3n2)cc1", "97.2% (inactive)"],
  ["COc1cc(-c2cc(-c3cc(OC)c(OC)c(OC)c3)nc3nc(N)[nH]c(=O)c23)ccc1Oc1ccnc2cc(Cl)ccc12", "27.8% (inactive)"],
  ["COc1ccc(-c2cc(/C=C3\\C(=O)Nc4cc(Cl)ccc43)[nH]n2)cc1OC", "52.9% (inactive)"],
  ["CCN(CC)CCOC(=O)c1ccc(NC(=O)Nc2cccc(Cl)c2)cc1", "94.6% (inactive)"],
  ["CCCCCCCC/C=C/CCCCCCCCC1=NCCN1CCO", "-7.51% (active)"],
  ["O=C(COCc1c(-c2ccccc2)no[n+]1[O-])Nc1nc(-c2ccc(Cl)cc2)cs1", "95.8% (inactive)"],
  ["CC(CNC(Cc1ccccc1)c1ccccc1)NC(Cc1ccccc1)c1ccccc1 (stereo unspecified)", "-5.75% (active)"],
  ["COc1ccc(Cn2cc3c(c2-c2ccccc2)CC(C)(C)c2cnoc2-3)cc1", "35.1% (inactive)"],
  ["COc1cc(/C=C/C(=O)c2cc(-c3ccc(F)cc3)ccc2O)cc(OC)c1OC", "48.9% (inactive)"],
  ["N#Cc1cnc2ccc(NCc3cnc[nH]3)cc2c1Nc1ccc(F)c(Cl)c1", "58.2% (inactive)"]
]}

For the molecule CCOC(=O)Cn1nnc(-c2ccc(OCc3ccccc3F)cc2)n1 , give its reported growth.
85.2% (inactive)

Look up and report measured growth for this entry: CC[C@@]1(C(N)=O)CC2C=CC1C2 (stereo partly specified)
105% (inactive)

###

Tested on: SNB-19 CNS
ASSAY_OVERVIEW: NCI-60 one-dose screen, 48 h (100 = growth as untreated, 0 = no growth, -100 = all killed)
EXPERIMENTAL_CONDITIONS: 10 µM
About 83,000 compounds went through this panel and 20% of them were active in at least one assay; those are over-represented in the sample as a whole.
growth less than 40% is Y; growth greater than or equal to 40% is N.

Item COc1cc(Cn2c(-c3ccccc3)c(Cl)c3c2-c2oncc2CC3)cc(OC)c1 : growth beneath 40%, strictly?
N

Lab note: growth threshold 40%. Does this molecule come in strictly under it? COc1cc(Cn2c(-c3ccccc3)cc3c2-c2oncc2CC3)cc(OC)c1
Y

Does O=C(CCl)N1c2ccccc2Sc2ccc3ccccc3c21 have growth strictly under 40%?
N

Criterion: growth strictly below 40%. Is it met by CC(=O)[C@H]1CC[C@H]2[C@@H]3CC[C@@H]4CC=C(C=O)C[C@]4(C)[C@H]3CC[C@]12C ?
N

Does this molecule meet the criterion growth < 40%? FC(F)(F)c1ccc(-c2cnc(Cl)nc2NCc2cc(C(F)(F)F)cc(C(F)(F)F)c2)cc1
Y

I'd appreciate it if you could check whether O=C(N/N=C\c1cc(Cl)ccc1O)c1ccncc1 has growth smaller than 40%.
N

Hello, I'm reviewing records and need to know if growth of COc1cc(C2C=C(c3ccc(Cl)cc3)N=C3SC(C)=CN32)cc(OC)c1OC (configuration not stated) is below 40%. Could you check?
N

Field: below-cutoff. Rule: recorded growth strictly less than 40%. Subject: CCN(CC)CCn1c(=N)n(CC(O)c2ccc(Cl)c(Cl)c2)c2ccccc21 (configuration not stated)
N

Criterion: growth strictly below 40%. Is it met by CCN(CC)c1ccc(/C=C/C2=[N+](C)c3ccccc3C2(C)C)c(C)c1 ?
Y

Every entry's value here was drawn from PubChem BioAssay (NCI).
